Hello, the source for this data is paper PMC3034772, in case you need it.

EXPERIMENTAL DETAILS: physchem
CONDITIONS USED: pKa
Reported pKa by item:

[[record]]
molecule = "COc1cc2nc(N3CCN(C(=O)c4ccco4)CC3)nc(N)c2cc1OC [Prazosin]"
result = 6.79

[[record]]
molecule = "O=C1C[C@@H](c2ccc(O)cc2)Oc2cc(O)cc(O)c21 [Naringenin]"
result = 10.4

[[record]]
molecule = "CC(C)c1nc(CN(C)C(=O)N[C@H](C(=O)N[C@@H](Cc2ccccc2)C[C@H](O)[C@H](Cc2ccccc2)NC(=O)OCc2cncs2)C(C)C)cs1 [Ritonavir]"
result = 2.42


Next molecule, pKa to be filled in.
The recorded pKa for entry O=c1c(O)c(-c2ccc(O)c(O)c2)oc2cc(O)cc(O)c12 [Quercetin] equals 9.4

====

CONDITIONS USED: PAMPA
Entries and their measured log Po follow.
Simply state the number, no unit and no words.

[[record]]
compound = "CCCN1C[C@H](C)N([C@H](c2ccc(C(=O)N(CC)CC)cc2)c2cccc(OC)c2)C[C@H]1C [SNC121]"
result_number = "−2.91"

[[record]]
compound = "Cc1cn([C@H]2C[C@H](N=[N+]=[N-])[C@@H](CO)O2)c(=O)[nH]c1=O [Zidovudine]"
result_number = "−6.24"

[[record]]
compound = "CC(C)c1nc(CN(C)C(=O)N[C@H](C(=O)N[C@@H](Cc2ccccc2)C[C@H](O)[C@H](Cc2ccccc2)NC(=O)OCc2cncs2)C(C)C)cs1 [Ritonavir]"
result_number = "−4.24"

[[record]]
compound = "CN/C(=N/CCSCc1nc[nH]c1C)NC#N [Cimetidine]"
result_number = "−6.40"

[[record]]
compound = "CC(C)(C)NC(=O)[C@@H]1C[C@@H]2CCCC[C@@H]2CN1C[C@@H](O)[C@H](Cc1ccccc1)NC(=O)[C@H](CC(N)=O)NC(=O)c1ccc2ccccc2n1 [Saquinavir]"
result_number = "−3.82"

[[record]]
compound = "CC(C)(C)NC(=O)[C@@H]1CN(Cc2cccnc2)CCN1C[C@@H](O)C[C@@H](Cc1ccccc1)C(=O)N[C@H]1c2ccccc2C[C@H]1O [Indinavir]"
result_number = "−5.17"


Now consider a different compound.
The reported log Po of the compound CC(C)[C@H](NC(=O)[C@H](CCC(=O)O)NC(=O)[C@H](Cc1ccccc1)NC(=O)[C@@H](C)NC(=O)[C@@H](N)Cc1ccc(O)cc1)C(=O)N[C@H](C(=O)NCC(N)=O)C(C)C [Deltorphin II] was −6.51

====

CONDITIONS USED: PAMPA
Entries and their measured log PABL follow.
// no unit string in output, number only

The reported value for Clc1ccc2c(c1)C(N1CCNCC1)=Nc1ccccc1O2 [Amoxapine] in terms of log PABL is −3.26

So, O=c1n(CCCN2CCN(c3cccc(Cl)c3)CC2)nc2ccccn12 [Trazodone] ? Its log PABL was −3.90

Record CN1CCCCC1CCN1c2ccccc2Sc2ccc([S+](C)[O-])cc21 (stereo not shown) [Mesoridazine] . Reported log PABL: −3.26

For CN(C)CCCN1c2ccccc2Sc2ccc(Cl)cc21 [Chlorpromazine] the molecule record lists log PABL as −3.10

For reference, reported log PABL for OCCOCCN1CCN(C(c2ccccc2)c2ccc(Cl)cc2)CC1 (stereo not shown) [Hydroxyzine] stands at −3.26

So, O=C(O)CCCc1ccc(N(CCCl)CCCl)cc1 [Chlorambucil] ? Its log PABL was −2.87

For record O=C(CCCN1CCC(O)(c2ccc(Cl)cc2)CC1)c1ccc(F)cc1 [Haloperidol] the listed log PABL is −3.38

The recorded log PABL for Cn1cnc2c1c(=O)[nH]c(=O)n2C [Theobromine] is −4.45
